# assayed.target: Nitric oxide synthase, inducible (Homo sapiens)
# Sequence (P35228 whole entry): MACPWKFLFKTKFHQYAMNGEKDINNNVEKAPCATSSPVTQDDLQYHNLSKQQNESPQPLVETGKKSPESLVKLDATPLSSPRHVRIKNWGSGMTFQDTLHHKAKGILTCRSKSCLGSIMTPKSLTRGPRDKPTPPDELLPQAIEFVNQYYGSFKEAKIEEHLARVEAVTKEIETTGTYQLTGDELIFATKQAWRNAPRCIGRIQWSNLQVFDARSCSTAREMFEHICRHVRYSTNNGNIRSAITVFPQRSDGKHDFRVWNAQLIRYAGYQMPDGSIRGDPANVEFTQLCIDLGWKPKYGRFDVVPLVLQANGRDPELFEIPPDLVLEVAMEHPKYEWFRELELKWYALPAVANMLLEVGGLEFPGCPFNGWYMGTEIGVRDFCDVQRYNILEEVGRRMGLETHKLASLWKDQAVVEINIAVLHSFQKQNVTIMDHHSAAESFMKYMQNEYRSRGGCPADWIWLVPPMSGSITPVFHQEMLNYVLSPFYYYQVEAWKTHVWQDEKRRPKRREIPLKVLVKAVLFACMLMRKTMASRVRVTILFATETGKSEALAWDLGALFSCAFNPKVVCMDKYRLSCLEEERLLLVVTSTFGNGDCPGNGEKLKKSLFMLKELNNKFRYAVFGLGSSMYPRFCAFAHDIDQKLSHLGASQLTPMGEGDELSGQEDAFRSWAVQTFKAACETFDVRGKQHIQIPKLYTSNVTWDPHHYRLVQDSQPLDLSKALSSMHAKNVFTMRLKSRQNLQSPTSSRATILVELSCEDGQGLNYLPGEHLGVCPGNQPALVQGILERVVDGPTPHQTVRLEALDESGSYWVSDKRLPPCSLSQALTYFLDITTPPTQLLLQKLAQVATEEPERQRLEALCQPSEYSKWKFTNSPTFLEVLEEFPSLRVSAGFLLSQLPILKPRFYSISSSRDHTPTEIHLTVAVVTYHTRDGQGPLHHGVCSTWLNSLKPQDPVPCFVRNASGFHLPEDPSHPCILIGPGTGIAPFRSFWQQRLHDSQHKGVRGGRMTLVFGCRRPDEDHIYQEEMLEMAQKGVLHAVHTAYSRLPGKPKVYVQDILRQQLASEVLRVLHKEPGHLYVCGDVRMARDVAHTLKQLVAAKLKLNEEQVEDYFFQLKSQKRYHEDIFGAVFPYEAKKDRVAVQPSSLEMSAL
For each entry below, report its pIC50 value.
Give bare numbers, as −log10 of the molar value.

Some entries whose results are on file:
>>> number("CC(=N)NCCCC[C@H](N)C(=O)O")
5.85
>>> number("N=C(N)NN")
4.00
>>> number("Nc1ccccn1")
5.72
>>> number("Cc1ccc(N)nc1C")
5.14
>>> number("Cc1cnc(N)c(C)c1")
4.84

// each listed compound needs a value for pIC50
1. Cc1cc(N)nc2c1CCCC2
2. CCCc1c(C)ccnc1N
3. CCc1cnc(N)cc1C
4. CCc1cc(C)cc(N)n1
5. Cc1cc(C)nc(N)c1

A:
1: 5.40; 2: 4.46; 3: 5.89; 4: 6.48; 5: 6.96
